System: NCI-H226 lung
Assay: NCI-60 one-dose screen, 48 h
Conditions: 10 µM unless noted
Procedure: Growth inhibition of the NCI-H226 human Non-Small Cell Lung tumor cell line is measured as a screen for anti-cancer activity. Cells are grown in 96 well plates and exposed to the test compound for 48 hours. Compounds are tested at a single concentration, which is 10^-5 M for most compounds. The reported endpoint is percent growth (GI% or GIPRCNT), where numbers from 0 - 100% represent growth inhibition, and numbers from -100% - 0 represent cell death. […]
About 83,000 compounds went through this panel and 20% of them were active in at least one assay; those are over-represented in the sample as a whole. Active and inactive are the calls of the source. How the source made its calls: active means growth percent below 10; inactive means the rest.
Output constraint: value belongs to active, inactive

## Task So what was the verdict on COc1cc(-c2nc3sc(C)cn3c2/C=C2\C(=O)Nc3ccccc32)c(Br)c(OC)c1OC in this test?
## Result inactive

## Task Status in this test for CCOc1cccc(Nc2nc(N)nc3[nH]c4ccc(O)cc4c23)c1 ?
## Result inactive

## Task Please share the test call associated with C#C[C@@]1(O)[C@@H](CO)O[C@@H](n2cc(C(F)(F)F)c3c(N)ncnc32)[C@@H]1O .
## Result active

## Task Give the logged outcome of this assay for the following molecule: CC(C)(C)OC(=O)N1CCN(CCn2cc(C(F)(F)F)c3c(Cl)ncnc32)CC1
## Result inactive

## Task What outcome does the record of this test show for COc1cc(NS(C)(=O)=O)ccc1Cc1c2ccccc2nc2ccccc12 ?
## Result active
